Tested System: APC11/APC2 (Homo sapiens, UniProt Q9NYG5+Q9UJX6)
Sequence (Q9NYG5 whole entry): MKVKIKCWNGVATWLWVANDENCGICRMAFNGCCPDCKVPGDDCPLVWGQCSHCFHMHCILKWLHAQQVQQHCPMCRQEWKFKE
Sequence (Q9UJX6 whole entry): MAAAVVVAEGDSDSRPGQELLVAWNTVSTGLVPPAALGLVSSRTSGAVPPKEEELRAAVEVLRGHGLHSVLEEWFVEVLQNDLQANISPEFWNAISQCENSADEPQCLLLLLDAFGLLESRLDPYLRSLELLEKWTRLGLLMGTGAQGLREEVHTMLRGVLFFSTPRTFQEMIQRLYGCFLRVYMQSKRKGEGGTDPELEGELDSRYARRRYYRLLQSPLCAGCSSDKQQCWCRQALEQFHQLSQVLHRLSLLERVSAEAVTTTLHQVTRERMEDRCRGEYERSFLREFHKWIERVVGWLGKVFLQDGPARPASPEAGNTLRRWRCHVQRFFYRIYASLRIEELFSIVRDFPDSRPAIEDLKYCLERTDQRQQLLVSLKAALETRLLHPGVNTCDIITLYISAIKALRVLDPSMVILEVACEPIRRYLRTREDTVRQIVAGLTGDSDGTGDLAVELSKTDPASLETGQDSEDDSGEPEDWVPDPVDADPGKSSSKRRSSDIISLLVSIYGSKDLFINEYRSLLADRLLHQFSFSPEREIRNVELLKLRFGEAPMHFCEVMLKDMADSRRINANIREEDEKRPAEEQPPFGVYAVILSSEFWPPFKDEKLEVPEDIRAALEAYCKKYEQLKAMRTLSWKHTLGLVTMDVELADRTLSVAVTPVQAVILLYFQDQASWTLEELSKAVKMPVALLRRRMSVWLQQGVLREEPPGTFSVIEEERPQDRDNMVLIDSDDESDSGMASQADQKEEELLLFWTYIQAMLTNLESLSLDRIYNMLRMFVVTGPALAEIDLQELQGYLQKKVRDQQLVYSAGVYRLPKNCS
Protocol Notes: APC-11/APC-2 ligase assay (APC auto ubiquitination)
Assay Conditions: APC assay
Measurement Name: IC50

Reference set (2 entries):
N#Cc1ccc(N2CCN(c3ccc([N+](=O)[O-])c4nonc34)CC2)nc1 [compound 121] : 1 to 20 µM
O=[N+]([O-])c1ccc(-c2ccc3c(c2)OCO3)c2nonc12 [compound 467] : 1 to 20 µM

Now consider the entry below.
Per the reported APC11/APC2 (Homo sapiens, UniProt Q9NYG5+Q9UJX6) data, COc1ccc(C)cc1NS(=O)(=O)c1ccc(Sc2cccc3cccnc23)c2nonc12 [compound 384] has IC50 of ≥ 20 µM

----------
Let's look at some molecules and their measured IC50.
Tested System: TRAF6/Uev1A/Ubc13 (Homo sapiens)
Protocol Notes: TRAF6/Uev1A/Ubc13 plate-based ubiquitin ligase assay

The examples below pair each entry with its known result.
COc1ccccc1Sc1ccc(S(=O)(=O)N2CCN(C)CC2)c2nonc12 [compound 270] : ≥ 20 µM
O=S(=O)(Nc1ccccc1Br)c1ccc(Cl)c2nonc12 [compound 424] : ≥ 20 µM
O=S(=O)(c1c(Cl)ccc2nonc12)N1CCC(Oc2ncccn2)CC1 [compound 234] : ≥ 20 µM
O=c1[nH]c2ccccc2n1C1CCN(S(=O)(=O)c2ccc(Cl)c3nonc23)CC1 [compound 188] : ≥ 20 µM
O=S(=O)(Nc1cccc(F)c1F)c1ccc(Sc2cccc3cccnc23)c2nonc12 [compound 376] : ≥ 20 µM

In plain terms, O=S(=O)(Nc1cccc(F)c1F)c1ccc(Sc2ccncn2)c2nonc12 [compound 377] has a documented IC50 of ≥ 20 µM

----------
Tested System: APC11/APC2 (Homo sapiens, UniProt Q9NYG5+Q9UJX6)
Protocol Notes: APC-11/APC-2 ligase assay (APC auto ubiquitination)
Assay Conditions: APC assay
In this section, each of the compounds is paired with its reported IC50.

Take a look at these entries with their results.
Cc1ccc(Cl)cc1N1CCN(c2ccc([N+](=O)[O-])c3nonc23)CC1 : 1 to 20 µM
CC(C)c1ccccc1NS(=O)(=O)c1ccc(Cl)c2nonc12 : ≥ 20 µM
COc1cc(Nc2ccc(S(=O)(=O)Nc3cc(OC)c(Cl)cc3OC)c3nonc23)c(OC)cc1Cl [compound 349] : 1 to 20 µM

Here is the next item to consider.
The reported APC11/APC2 (Homo sapiens, UniProt Q9NYG5+Q9UJX6) IC50 of Cc1ccc(-c2cc3nsnc3cc2F)cc1C is ≥ 20 µM

----------
Tested System: TRAF6/Uev1A/Ubc13 (Homo sapiens, UniProt Q9Y4K3)
Sequence (Q9Y4K3 1-522): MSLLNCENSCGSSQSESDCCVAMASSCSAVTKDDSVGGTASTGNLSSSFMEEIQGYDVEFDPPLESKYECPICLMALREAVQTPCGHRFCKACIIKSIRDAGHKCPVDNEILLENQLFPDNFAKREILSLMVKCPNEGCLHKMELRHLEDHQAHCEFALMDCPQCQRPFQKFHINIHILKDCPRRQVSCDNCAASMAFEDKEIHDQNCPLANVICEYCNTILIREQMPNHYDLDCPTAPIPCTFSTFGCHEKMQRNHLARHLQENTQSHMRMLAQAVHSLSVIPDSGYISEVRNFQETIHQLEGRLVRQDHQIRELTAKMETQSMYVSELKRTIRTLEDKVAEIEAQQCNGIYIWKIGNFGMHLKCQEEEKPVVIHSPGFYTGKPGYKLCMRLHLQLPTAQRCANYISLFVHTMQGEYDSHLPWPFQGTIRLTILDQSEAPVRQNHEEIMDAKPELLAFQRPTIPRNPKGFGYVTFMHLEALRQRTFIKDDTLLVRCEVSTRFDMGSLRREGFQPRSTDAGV
Protocol Notes: TRAF6/Uev1A/Ubc13 plate-based ubiquitin ligase assay
Assay type: biochemical
Measurement Name: IC50

Worked examples follow.
COCCNS(=O)(=O)c1ccc(Cl)c2nonc12 [compound 438] : ≥ 20 µM
COC(=O)c1ccc(NS(=O)(=O)c2ccc(Oc3cccc4cccnc34)c3nonc23)cc1 [compound 277] : ≥ 20 µM
CN1CCN(S(=O)(=O)c2ccc(Cl)c3nonc23)CC1 [compound 189] : ≥ 20 µM
Cc1ccc(-c2ccc([N+](=O)[O-])c3nonc23)cc1C [compound 472] : 1 to 20 µM
FC(F)(F)c1cnc(N2CCN(c3ccc(N4CCOCC4)c4nonc34)CC2)c(Cl)c1 [compound 282] : ≥ 20 µM
N#Cc1cccnc1N1CCN(S(=O)(=O)c2ccc(Sc3cccc4cccnc34)c3nonc23)CC1 [compound 176] : 1 to 20 µM

The compound identified as O=S(=O)(Nc1cccc(F)c1)c1ccc(Cl)c2nonc12 [compound 263] registered its IC50 at ≥ 20 µM

Kindly note the recorded IC50 for O=S(=O)(c1ccc(Sc2ccc(O)cc2)c2nonc12)N1CCC(O)(c2ccc(Cl)cc2)CC1 [compound 228] , which is < 1 µM

Lab book: IC50 of O=S(=O)(Nc1cccc(F)c1F)c1ccc(Sc2cccc3ccccc23)c2nonc12 [compound 379] noted as 1 to 20 µM

The compound listed as Cc1ccc2nsnc2c1S(=O)(=O)Nc1ccccc1F [compound 452] has a reported IC50 of ≥ 20 µM

The compound O=S(=O)(Nc1ccc(O)c2ccccc12)c1ccc(Cl)c2nonc12 [compound 393] showed IC50 equal to 1 to 20 µM

----------
Tested System: TRAF6/Uev1A/Ubc13 (Homo sapiens, UniProt Q9Y4K3)
Protocol Notes: TRAF6/Uev1A/Ubc13 plate-based ubiquitin ligase assay
Measurement Name: IC50

Nc1ccc(OS(=O)(=O)c2ccc(Cl)c3nonc23)c2ccccc12 : 1 to 20 µM
Cc1ccc(-c2cc([N+](=O)[O-])cc3nonc23)cc1 : ≥ 20 µM
CCCSc1cc(NCCCOC(C)=O)c([N+](=O)[O-])c2nonc12 : ≥ 20 µM

Sample Cc1cccc(C(C)C)c1NS(=O)(=O)c1ccc(Cl)c2nonc12 , system: TRAF6/Uev1A/Ubc13 (Homo sapiens, UniProt Q9Y4K3). Its IC50 is ≥ 20 µM

Noted IC50 for O=S(=O)(Nc1ccc(Oc2ncc(C(F)(F)F)cc2Cl)cc1)c1cccc2nonc12 , tested on TRAF6/Uev1A/Ubc13 (Homo sapiens, UniProt Q9Y4K3): ≥ 20 µM

Bench note, TRAF6/Uev1A/Ubc13 (Homo sapiens, UniProt Q9Y4K3): O=S(=O)(c1c(N2CCOCC2)cc(Cl)c2nonc12)N1CCOCC1 , IC50 reads ≥ 20 µM

TRAF6/Uev1A/Ubc13 (Homo sapiens, UniProt Q9Y4K3) IC50 of O=S(=O)(Nc1cccc2ccccc12)c1ccc(Cl)c2nonc12 is ≥ 20 µM

----------
Tested System: TRAF6/Uev1A/Ubc13 (Homo sapiens, UniProt Q9Y4K3)
Protocol Notes: TRAF6/Uev1A/Ubc13 plate-based ubiquitin ligase assay
pIC50: −log10 of the molar value.
Measurement Name: pIC50

The examples below pair each entry with its known result.
O=S(=O)(Nc1cccc2ccc(O)cc12)c1ccc(Cl)c2nonc12 [compound 383] : 4.70 to 6.00
COC(=O)c1ccc(NS(=O)(=O)c2ccc(N3CCSCC3)c3nonc23)cc1 [compound 250] : ≤ 4.70
N#Cc1ccc(N2CCN(S(=O)(=O)c3c(Cl)ccc4nonc34)CC2)nc1 [compound 209] : 4.70 to 6.00

For this molecule ( Nc1ccc2cnn(S(=O)(=O)c3ccc(Cl)c4nonc34)c2c1 [compound 221] ), measured pIC50 is ≤ 4.70

Recorded pIC50 (molecule CC(=O)C1(c2ccccc2)CCN(c2ccc([N+](=O)[O-])c3nonc23)CC1 [compound 231] ): 4.70 to 6.00

The reported pIC50 of the molecule CC1CN(S(=O)(=O)c2c(Sc3cccc4cccnc34)ccc3nonc23)CC(C)O1 (stereo not shown) [compound 216] was 4.70 to 6.00

----------
Tested System: TRAF6/Uev1A/Ubc13 (Homo sapiens)
Protocol Notes: TRAF6/Uev1A/Ubc13 plate-based ubiquitin ligase assay
Each item that follows carries a reported IC50.

For orientation, consider the following solved cases.
O=[N+]([O-])c1ccc(N2CCN(c3ccc4ccccc4n3)CC2)c2nonc12 [compound 155] : 1 to 20 µM
O=S(=O)(NCCCc1ccccc1)c1ccc(Cl)c2nonc12 [compound 445] : ≥ 20 µM
COc1cc(Nc2ccc3nonc3c2S(=O)(=O)Nc2cc(OC)c(Cl)cc2OC)c(OC)cc1Cl [compound 344] : ≥ 20 µM
Cc1cccc(C)c1NS(=O)(=O)c1ccc(Cl)c2nonc12 [compound 353] : ≥ 20 µM
O=S(=O)(Nc1cccc2nonc12)c1ccc(Oc2cccnc2)cc1 [compound 86] : ≥ 20 µM

# input for lookup
// field: IC50; key: Cc1ccccc1-c1ccc([N+](=O)[O-])c2nonc12 [compound 439, 4-nitro-7-o-tolyl-2,1,3-benzoxadiazole] ; value = ≥ 20 µM

----------
Tested System: TRAF6/Uev1A/Ubc13 (Homo sapiens, UniProt Q9Y4K3)
Sequence (Q9Y4K3 1-522): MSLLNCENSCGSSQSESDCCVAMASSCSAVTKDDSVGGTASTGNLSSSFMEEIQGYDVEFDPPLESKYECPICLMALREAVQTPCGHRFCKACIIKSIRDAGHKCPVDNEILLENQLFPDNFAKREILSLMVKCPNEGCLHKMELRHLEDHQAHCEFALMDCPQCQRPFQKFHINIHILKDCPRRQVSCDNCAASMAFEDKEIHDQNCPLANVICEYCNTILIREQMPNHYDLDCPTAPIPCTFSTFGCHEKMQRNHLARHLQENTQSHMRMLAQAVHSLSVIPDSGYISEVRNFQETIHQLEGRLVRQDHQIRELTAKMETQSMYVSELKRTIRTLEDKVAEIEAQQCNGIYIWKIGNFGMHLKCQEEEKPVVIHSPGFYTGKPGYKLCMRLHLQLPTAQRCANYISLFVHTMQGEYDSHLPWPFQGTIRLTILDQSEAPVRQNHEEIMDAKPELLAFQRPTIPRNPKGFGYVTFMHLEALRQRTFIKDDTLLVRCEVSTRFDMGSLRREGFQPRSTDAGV
Protocol Notes: TRAF6/Uev1A/Ubc13 plate-based ubiquitin ligase assay
pIC50: −log10 of the molar value.
Measurement Name: pIC50

O=[N+]([O-])c1ccc(Nc2cccc(F)c2F)c2nonc12 : ≤ 4.70
O=S(=O)(Nc1ccc(F)cc1F)c1ccc(Cl)c2nonc12 : ≤ 4.70
COc1ccc(OC)c(NS(=O)(=O)c2ccc(Cl)c3nonc23)c1 : ≤ 4.70

The reported value for CC(=O)c1ccc(-c2ccc([N+](=O)[O-])c3nonc23)cc1 in terms of pIC50 is 4.70 to 6.00

Measured pIC50 of COc1cc(NS(=O)(=O)c2ccc(F)c3nonc23)c(OC)cc1Cl : ≤ 4.70
